tested on: A549; assay: Antiproliferative activity against human A549 cells after 48 hrs by MTT assay; assay type: functional; details: A549, 48 h
TEST READOUT: GI50

SMILES NOTATION	MEASURED TARGET	GI50
COc1cc2c(cc1OC)C(=O)/C(=C/c1ccc(OC)c(OC)c1OC)C2	A549	> 10 µM
COc1ccc(/C=C2\Cc3cc(OC)c(OC)c(OC)c3C2=O)cc1	A549	> 10 µM
COc1ccc(/C=C2\Cc3cc(OC)c(OC)c(OC)c3C2=O)cc1[N+](=O)[O-]	A549	> 10 µM
COc1cc2c(cc1OC)C(=O)/C(=C/c1cc(OC)c(OC)c(OC)c1)C2	A549	> 10 µM

Proceeding to the next compound to report its GI50.
Query: Fill in the blank: the reported GI50 of COc1cc(/C=C2\Cc3cc(OC)c(OC)c(OC)c3C2=O)cc(OC)c1OC is ____.
Reply: > 10 µM
